System: A204
runDescription: relative viability vs DMSO control (72 h) (fraction); higher = more viable cells
conditionContext: 0.3704 µM

compound	assaySystem	relative viability
CNC(=O)c1cccc2cc(Oc3ccnc4cc(OCC5(N)CC5)c(OC)cc34)ccc12	A204	0.391
CN(C)C(=O)c1cc2cnc(Nc3ccc(N4CCNCC4)cn3)nc2n1C1CCCC1	A204	0.907
O=S(=O)(c1cccc2c(O)nccc12)N1CCCNCC1 [Hydroxyfasudil]	A204	1.06
CO[C@H]1C[C@@H]2CC[C@@H](C)[C@@](O)(O2)C(=O)C(=O)N2CCCC[C@H]2C(=O)O[C@H]([C@H](C)C[C@@H]2CC[C@@H](OC(=O)C(C)(CO)CO)[C@H](OC)C2)CC(=O)[C@H](C)/C=C(\C)[C@@H](O)[C@@H](OC)C(=O)[C@H](C)C[C@H](C)/C=C/C=C/C=C/1C	A204	0.453

The origin of these recorded values is the supplement of paper PMC10883282.
